target: Bromodomain-containing protein 3 (Homo sapiens); assay: Binding affinity to BRD3 in human HL60 cell nuclear extracts assessed as inhibition of protein binding to N-I-BET functionalised sepharose beads after 1 hr by coomassie staining-based chemoproteomic competition binding assay; settings: read-out: Kd(app)
Sequence (Q15059 whole entry): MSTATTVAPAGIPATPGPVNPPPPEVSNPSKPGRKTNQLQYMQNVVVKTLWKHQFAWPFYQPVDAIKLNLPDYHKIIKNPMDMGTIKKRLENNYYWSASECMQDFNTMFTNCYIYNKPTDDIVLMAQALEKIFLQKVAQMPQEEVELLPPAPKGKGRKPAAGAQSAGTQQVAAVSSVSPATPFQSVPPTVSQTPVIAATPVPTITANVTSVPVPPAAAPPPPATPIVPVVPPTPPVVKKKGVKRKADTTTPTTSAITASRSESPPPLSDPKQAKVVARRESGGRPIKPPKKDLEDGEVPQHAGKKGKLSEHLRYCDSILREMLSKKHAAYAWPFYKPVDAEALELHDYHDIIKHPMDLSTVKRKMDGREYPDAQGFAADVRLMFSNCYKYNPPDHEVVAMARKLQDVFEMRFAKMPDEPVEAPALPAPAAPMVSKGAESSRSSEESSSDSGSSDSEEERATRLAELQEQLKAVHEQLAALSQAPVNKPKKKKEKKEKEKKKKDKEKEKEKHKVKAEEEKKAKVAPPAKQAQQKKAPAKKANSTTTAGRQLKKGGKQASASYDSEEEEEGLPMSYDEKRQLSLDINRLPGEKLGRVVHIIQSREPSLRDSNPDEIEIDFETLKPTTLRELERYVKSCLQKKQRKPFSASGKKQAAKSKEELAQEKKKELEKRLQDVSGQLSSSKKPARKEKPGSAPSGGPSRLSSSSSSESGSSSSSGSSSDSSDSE
measured.attribute: pKd
Numbers only, as −log10 of the molar value.

Noted for CC(=O)N1c2ccc(-c3ccc(NC(=O)CCCCCCC(=O)NO)cc3)cc2[C@H](NC(=O)OC(C)C)C[C@@H]1C : its pKd reads 7.15

====

Consider the following pIC50 values measured on Histone deacetylase 1 (Homo sapiens).
Sequence (Q13547 whole entry): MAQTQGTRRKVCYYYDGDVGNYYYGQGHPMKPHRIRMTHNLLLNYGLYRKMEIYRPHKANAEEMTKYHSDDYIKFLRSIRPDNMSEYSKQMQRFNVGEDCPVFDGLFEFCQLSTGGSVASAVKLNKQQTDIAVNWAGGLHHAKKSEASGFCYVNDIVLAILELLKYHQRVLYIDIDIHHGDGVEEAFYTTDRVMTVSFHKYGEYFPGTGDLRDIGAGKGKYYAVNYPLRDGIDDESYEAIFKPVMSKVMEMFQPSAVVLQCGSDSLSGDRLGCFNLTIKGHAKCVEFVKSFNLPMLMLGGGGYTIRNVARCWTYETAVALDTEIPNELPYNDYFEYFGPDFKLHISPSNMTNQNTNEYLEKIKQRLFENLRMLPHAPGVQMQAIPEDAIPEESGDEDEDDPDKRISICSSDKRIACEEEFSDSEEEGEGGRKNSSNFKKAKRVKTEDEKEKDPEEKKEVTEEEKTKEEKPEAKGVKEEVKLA
One number for each entry, as −log10 of the molar value.

smiles.string	pIC50
CC(=O)N1c2ccc(NC(=O)CCCCCCC(=O)NO)cc2[C@H](Nc2ccccc2)C[C@@H]1C	6.05

// switching to the query molecule
Sample CC(=O)N1c2ccc(-c3ccccc3)cc2[C@H](NC(=O)CCCCCCC(=O)NO)C[C@@H]1C ; pIC50 observed: 7.30

====

assay: Solubility of the compound by chemiluminescent nitrogen detection method; format: physicochemical; details: read-out: solubility
Exercise: for every item that follows, state its recorded solubility.
Answers are plain numbers, in µM.

Use the examples below as a reference point.
smiles.string	measured.attribute	test.value
CC(=O)N1c2ccc(-c3ccc(NC(=O)CCCCCCC(=O)NO)cc3)cc2[C@H](NC(=O)OC(C)C)C[C@@H]1C	solubility	154
CC(=O)N1c2ccc(NC(=O)CCCCCCC(=O)NO)cc2[C@H](Nc2ccccc2)C[C@@H]1C	solubility	31

// next item, solubility requested
Just so you know, measured solubility for CNCc1ccc(-c2ccc3c(c2)[C@H](NC(=O)OC(C)C)C[C@H](C)N3C(C)=O)cc1 came out at 357
